Just for reference, ChEMBL document CHEMBL1149968 is where these values come from.

# Tested on: SK-OV-3
# assay_comment: In vitro cytotoxicity against ovarian cancer SK-OV-3 cell lines
# Assay type: functional, cell-based, Homo sapiens
endpoint_name: IC50 (µM)

| sequence_text | quantitative_readout |
| --- | --- |
| CARBOPLATIN | 13.9 |

* * *

The following sequences are listed with their measured pIC50 values.
# Tested on: L1210
# assay_comment: In vitro cytotoxicity against Cisplatin resistant L1210/CPR leukemia cell lines.
# Assay type: functional, cell-based, Mus musculus
pIC50: −log10 of the molar value.

| sequence_text | assay_system | pIC50 |
| --- | --- | --- |
| CARBOPLATIN | L1210 | 4.34 |
| CISPLATIN | L1210 | 5.47 |
